Source: PubChem BioAssay AID588342

- Target Of Assay: Luciferin 4-monooxygenase (Photinus pyralis) (UniProt P08659)
- Sequence (P08659 whole entry, looked up): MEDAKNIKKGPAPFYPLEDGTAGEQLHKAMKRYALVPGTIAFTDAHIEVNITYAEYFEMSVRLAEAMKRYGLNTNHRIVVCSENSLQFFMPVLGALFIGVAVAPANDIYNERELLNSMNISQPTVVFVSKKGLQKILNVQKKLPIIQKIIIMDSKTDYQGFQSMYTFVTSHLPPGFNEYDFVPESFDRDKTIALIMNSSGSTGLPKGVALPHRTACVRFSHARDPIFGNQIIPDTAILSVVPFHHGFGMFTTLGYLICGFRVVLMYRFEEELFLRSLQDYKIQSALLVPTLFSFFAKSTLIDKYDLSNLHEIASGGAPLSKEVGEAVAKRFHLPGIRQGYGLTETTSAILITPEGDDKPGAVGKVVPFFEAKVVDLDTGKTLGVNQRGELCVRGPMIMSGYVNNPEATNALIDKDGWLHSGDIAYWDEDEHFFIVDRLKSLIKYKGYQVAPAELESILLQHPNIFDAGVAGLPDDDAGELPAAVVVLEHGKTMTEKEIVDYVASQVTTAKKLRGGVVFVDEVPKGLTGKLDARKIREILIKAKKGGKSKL
- Experimental Details: qHTS profiling assay for firefly luciferase inhibitor/activator using purifed enzyme and Km concentrations of substrates (counterscreen for miR-21 project); note: nearly all actives have a fitted effect of over 55% in size
- Cond: purified FLuc, luminescence inhibition; series mostly up to 57.5 µM
Screen size: about 360,000 compounds; about 25,000 (6.9%) were called active. Another 9% or so got no clear call; they are omitted. Calls come from the whole dose curve; as a rule, active = well fitted inhibition curve with a large enough effect; inconclusive = small, poorly fitted or top-dose-only effect; inactive = flat fitted curve, though single readings scatter. The entries come from a sample that favours actives as a whole.
Outcomes: active, inactive

• COc1ccc(Cl)cc1NC(=O)CCC(=O)c1ccc(C)cc1 = inactive
• O=C(Cn1ncc2c3ccccc3n(Cc3ccccc3)c2c1=O)NC1CCCCCC1 = inactive
• CCc1ccc2oc(-c3ccc(C)c(NC(=O)/C=C/c4ccco4)c3)nc2c1 = active
• Cc1ccc2c(CN3CCN(S(=O)(=O)c4ccccc4C(F)(F)F)CC3)cc(=O)oc2c1 = inactive
• COc1ccc(C)cc1Nc1nc(C)nc2c1oc1ccccc12 = inactive
• Cc1cc(C(=O)COC(=O)C2CC2)c(C)n1-c1ccc(F)cc1 = active
• CN(C(=O)COc1ncnc2c1cnn2-c1ccccc1)C1CCCCC1 = inactive
• O=C(COC(=O)C1CC2CCCC(C1)C2=O)NC(=O)c1ccccc1 (stereo unspecified) = inactive
• Cc1ccc(NC(=O)CCCNC(=O)c2ccc(Cl)cc2)cc1S(=O)(=O)N1CCCCC1 = inactive
• CCOC(=O)C1CCN(C(=O)CSc2c3c(nc4ccc(Cl)cc24)CCCC3)CC1 = inactive
• O=C1C=C(c2ccnc3cc(Cl)ccc23)C[C@@H](c2ccc3c(c2)OCO3)C1 = inactive
• O=C(NNS(=O)(=O)c1ccccc1C(F)(F)F)c1cc2ncc(C(F)(F)F)cc2s1 = inactive
• Cc1ccc(S(=O)(=O)NCCSc2ccccc2)cc1[N+](=O)[O-] = inactive
• Cc1cccc(C(=O)Nc2ccc(-c3nc4ncccc4o3)cc2C)c1 = inactive
• CC(=O)N1CCCc2cc(S(=O)(=O)N3CCC(C(=O)NC4CCCCC4)CC3)ccc21 = inactive
• COCCNc1nnc(SCC(=O)NNC(=O)c2ccco2)s1 = inactive
